Target: pendrin (Homo sapiens)
Sequence (O43511 1-780): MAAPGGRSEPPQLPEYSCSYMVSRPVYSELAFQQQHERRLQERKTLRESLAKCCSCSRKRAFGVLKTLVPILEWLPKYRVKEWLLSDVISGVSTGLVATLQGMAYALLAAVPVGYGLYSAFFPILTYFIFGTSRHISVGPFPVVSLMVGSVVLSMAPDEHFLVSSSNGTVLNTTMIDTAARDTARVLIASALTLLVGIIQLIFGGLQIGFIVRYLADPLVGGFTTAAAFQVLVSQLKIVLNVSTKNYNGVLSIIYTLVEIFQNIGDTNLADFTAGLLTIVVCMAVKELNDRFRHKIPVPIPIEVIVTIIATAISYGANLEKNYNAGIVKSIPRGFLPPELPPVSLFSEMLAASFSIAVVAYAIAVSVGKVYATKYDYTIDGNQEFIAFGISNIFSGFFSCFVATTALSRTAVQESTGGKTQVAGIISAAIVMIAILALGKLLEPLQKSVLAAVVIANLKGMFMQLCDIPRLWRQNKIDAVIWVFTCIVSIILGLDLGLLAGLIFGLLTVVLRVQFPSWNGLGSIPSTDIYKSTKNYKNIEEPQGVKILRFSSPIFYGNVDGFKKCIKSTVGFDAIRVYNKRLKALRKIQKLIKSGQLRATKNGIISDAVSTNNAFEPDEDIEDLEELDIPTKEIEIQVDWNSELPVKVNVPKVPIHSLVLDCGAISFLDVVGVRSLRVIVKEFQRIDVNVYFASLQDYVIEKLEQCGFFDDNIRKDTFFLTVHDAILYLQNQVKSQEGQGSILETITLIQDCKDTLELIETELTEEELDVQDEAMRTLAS
Assay: YFP (EYFP-HIF) fluorescence quenching assay of pendrin-mediated Cl− exchange (SCN−, I−, NO3−) in FRT cells; high-throughput screen
Type: cell-based
Parameters: expressed in transfected cells
Conditions: FRT, 25 μM; read-out: Inh. (%), percentage inhibition of human pendrin
ASSAY_READOUT: inhibition at 25 µM (%)

Consider the reported inhibition at 25 µM for these compounds:
[
  {
    "COMPOUND": "Cn1nc(COc2ccc(F)cc2)c2c1CCN(C(=O)Nc1ccc(Cl)cc1)C2",
    "STUDY_TARGET": "pendrin (Homo sapiens)",
    "UNIT_SPEC": "%",
    "inhibition at 25 µM": 66
  },
  {
    "COMPOUND": "Cc1ccc(NC(=O)N2CCc3c(c(COc4ccc(F)cc4)nn3C)C2)cc1Cl",
    "STUDY_TARGET": "pendrin (Homo sapiens)",
    "UNIT_SPEC": "%",
    "inhibition at 25 µM": 61
  },
  {
    "COMPOUND": "COc1ccc(NC(=O)N2CCc3c(c(COc4ccc(F)cc4)nn3C)C2)cc1F",
    "STUDY_TARGET": "pendrin (Homo sapiens)",
    "UNIT_SPEC": "%",
    "inhibition at 25 µM": 53
  }
]

(A) CSc1cccc(NC(=O)N2CCc3c(c(COc4ccccc4)nn3C)C2)c1
(B) COc1ccc(NC(=O)N2CCc3c(c(COc4ccccc4)nn3C)C2)cc1F
Problem: I'd appreciate it if you could identify which of A and B has the greater inhibition at 25 µM. Answer with the label corresponding to your selection.
Result: B

meta.source: patent US10702506B2
